Reported pEC50 values are given for each entry in this list.
assay_system: GLP-1R in a pancreatic insulinoma cell line (EndoC-PH1) (Homo sapiens, UniProt P43220)
Sequence (P43220 24-463): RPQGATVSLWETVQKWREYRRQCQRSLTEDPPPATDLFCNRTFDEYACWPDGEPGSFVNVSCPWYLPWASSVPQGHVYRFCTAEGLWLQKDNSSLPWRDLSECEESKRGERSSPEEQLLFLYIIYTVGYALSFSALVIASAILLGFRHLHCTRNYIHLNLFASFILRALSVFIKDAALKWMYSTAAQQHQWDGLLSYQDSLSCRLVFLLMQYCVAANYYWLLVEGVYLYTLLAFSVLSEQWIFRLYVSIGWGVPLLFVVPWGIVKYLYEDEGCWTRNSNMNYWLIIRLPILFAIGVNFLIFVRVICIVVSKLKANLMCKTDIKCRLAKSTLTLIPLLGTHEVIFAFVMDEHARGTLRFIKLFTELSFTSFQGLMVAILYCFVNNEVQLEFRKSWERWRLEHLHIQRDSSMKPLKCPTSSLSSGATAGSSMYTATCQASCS
assay_procedure: EndoC cAMP Accumulation Assay (HTRF)
stated_conditions: EndoC-PH1 human pancreatic beta cell line, endogenous GLP-1R, 30 min at rt
Quick note: pEC50 means taking -log10 of the concentration in moles per liter.

CC1(c2ccc(Cl)cn2)Oc2cccc(N3CCN(Cc4nc5c(F)cc(C(=O)O)cc5n4CCOC4CC4(F)F)[C@H]4CC[C@@H]43)c2O1 (mixture of isomers); 7.42
C[C@]1(c2ccc(Cl)cc2F)Oc2cccc(N3CCN(Cc4nc5ccc(C(=O)O)cc5n4C[C@@H]4CCO4)[C@H]4CC[C@H]43)c2O1 (single isomer, unassigned) [Example 18a]; 8.48
C[C@]1(c2ccc(Cl)cn2)Oc2cccc(N3CCN(Cc4nc5c(Cl)cc(C(=O)O)cc5n4CC4(CC#N)CC4)[C@H]4CC[C@@H]43)c2O1 (single isomer, unassigned) [Example 26d]; 8.15
COc1cc(C(=O)O)cc2c1nc(CN1CCN(c3cccc4c3O[C@@](C)(c3ccc(Cl)cn3)O4)[C@H]3CC[C@@H]31)n2CCOC1CC1 (relative stereo); 6.70
COc1cc(C(=O)O)cc2c1nc(CN1CCN(c3cccc4c3O[C@@](C)(c3ccc(Cl)cn3)O4)[C@H]3CC[C@@H]31)n2CC1(C#N)CC1 (single isomer, unassigned) [Example 25c]; 8.51
C[C@]1(c2ccc(Cl)cn2)Oc2cccc(N3CCN(Cc4nc5c(Cl)cc(C(=O)O)cc5n4C[C@@H]4CCO4)[C@@H]4CC[C@H]43)c2O1 (single isomer, unassigned); 8.59
C[C@]1(c2ccc(Cl)cc2F)Oc2cccc(N3CCN(Cc4nc5ccc(C(=O)O)cc5n4C[C@@H]4CCO4)[C@H]4CC[C@H]43)c2O1 (single isomer, unassigned) [Example 18b]; 6.32
C[C@]1(c2ccc(Cl)cn2)Oc2cccc(N3CCN(Cc4nc5c(Cl)cc(C(=O)O)cc5n4C[C@@H]4CCO4)[C@H]4CC[C@@H]43)c2O1 (single isomer, unassigned) [Example 3a]; 5.36
C[C@]1(c2ccc(Cl)cn2)Oc2cccc(N3CCN(Cc4nc5ccc(C(=O)O)cc5n4C[C@@H]4CCO4)[C@H]4CC[C@H]43)c2O1 (single isomer, unassigned) [Example 5b]; 6.92

Continue with the next compound.
q: Fill in the blank: the reported pEC50 of C[C@]1(c2ccc(Cl)cn2)Oc2cccc(N3CCN(Cc4nc5ccc(C(=O)O)cc5n4C[C@@H]4CCO4)[C@H]4CC[C@H]43)c2O1 (single isomer, unassigned) [Example 5a] is ____.
a: 8.19

----------
Reported pEC50 values are given for each entry in this list.
assay_system: human GLP-1R receptor (Homo sapiens, UniProt P43220, L260F)
Sequence (P43220 24-463 L260F): as the sequence (P43220 24-463) above, with L237F counted along it
assay_procedure: CHOK1 GLP-1R cAMP Assay (HTRF)
stated_conditions: CHO-K1 cells stably expressing human GLP-1R (Leu260Phe variant), 20 min at rt
Quick note: pEC50 means taking -log10 of the concentration in moles per liter.

C[C@]1(c2ccc(Cl)cn2)Oc2cccc(N3CCN(Cc4nc5c(Cl)cc(C(=O)O)cc5n4CC4(CC#N)CC4)[C@H]4CC[C@@H]43)c2O1 (single isomer, unassigned) [Example 26a]; 6.46
COc1cc(C(=O)O)cc2c1nc(CN1CCN(c3cccc4c3O[C@@](C)(c3ccc(Cl)cn3)O4)[C@@H]3CC[C@@H]31)n2C[C@@H]1CCCO1 (single isomer, unassigned) [Example 8d]; 7.03
C[C@]1(c2ccc(Cl)cc2F)Oc2cccc(N3CCN(Cc4nc5c(F)cc(C(=O)O)cc5n4C[C@@H]4CCO4)[C@H]4CC[C@H]43)c2O1 (relative stereo) [Example 9d]; 8.64
COc1cc(C(=O)O)cc2c1nc(CN1CCN(c3cccc4c3O[C@@](C)(c3ccc(Cl)cn3)O4)[C@@H]3CC[C@@H]31)n2C[C@@H]1CCCO1 (single isomer, unassigned) [Example 8c]; 8.80

q: Fill in the blank: the reported pEC50 of C[C@]1(c2ccc(Cl)cn2)Oc2cccc(N3CCN(Cc4nc5c(Cl)cc(C(=O)O)cc5n4C[C@@H]4CCO4)[C@H]4CC[C@H]43)c2O1 (relative stereo) [Example 20a] is ____.
a: 7.38
